target: Mitogen-activated protein kinase kinase kinase kinase 1 (Homo sapiens); assay: Biochemical Assay: The enzymatic activity of human HPK1 (MAP4K1) was monitored in a biochemical assay in the presence or absence of compounds and using a synthetic peptide substrate. An increase in phosphorylation of the peptide by HPK1 was indicative of its kinase activity.Recombinant HPK1 kinase domain produced via baculovirus infection of insect cells was obtained from Proteros (Proteros Biostructures #PR-0322) and was pre-activated in the presence of 2 mM ATP (Sigma-Aldrich, cat #GE27-2056-01) and 2 mM magnesium chloride for 16 hours at 4° C. The protein reaction mixture was then loaded to a desalting column (Thermo Fisher Scientific, Cat #89889) to remove excess ATP. HPK1 was eluted with buffer containing 20 mM Tris (2-Amino-2-(hydroxymethyl)propane-1,3-diol) pH 8.0, 150 mM NaCl, 2 mM dithiothreitol and 5% glycerol, and was frozen at −80° C. for later use. HPK1 dual phosphorylation was confirmed by mass spectrometry.
Sequence (Q92918 whole entry, the tested form may be a part): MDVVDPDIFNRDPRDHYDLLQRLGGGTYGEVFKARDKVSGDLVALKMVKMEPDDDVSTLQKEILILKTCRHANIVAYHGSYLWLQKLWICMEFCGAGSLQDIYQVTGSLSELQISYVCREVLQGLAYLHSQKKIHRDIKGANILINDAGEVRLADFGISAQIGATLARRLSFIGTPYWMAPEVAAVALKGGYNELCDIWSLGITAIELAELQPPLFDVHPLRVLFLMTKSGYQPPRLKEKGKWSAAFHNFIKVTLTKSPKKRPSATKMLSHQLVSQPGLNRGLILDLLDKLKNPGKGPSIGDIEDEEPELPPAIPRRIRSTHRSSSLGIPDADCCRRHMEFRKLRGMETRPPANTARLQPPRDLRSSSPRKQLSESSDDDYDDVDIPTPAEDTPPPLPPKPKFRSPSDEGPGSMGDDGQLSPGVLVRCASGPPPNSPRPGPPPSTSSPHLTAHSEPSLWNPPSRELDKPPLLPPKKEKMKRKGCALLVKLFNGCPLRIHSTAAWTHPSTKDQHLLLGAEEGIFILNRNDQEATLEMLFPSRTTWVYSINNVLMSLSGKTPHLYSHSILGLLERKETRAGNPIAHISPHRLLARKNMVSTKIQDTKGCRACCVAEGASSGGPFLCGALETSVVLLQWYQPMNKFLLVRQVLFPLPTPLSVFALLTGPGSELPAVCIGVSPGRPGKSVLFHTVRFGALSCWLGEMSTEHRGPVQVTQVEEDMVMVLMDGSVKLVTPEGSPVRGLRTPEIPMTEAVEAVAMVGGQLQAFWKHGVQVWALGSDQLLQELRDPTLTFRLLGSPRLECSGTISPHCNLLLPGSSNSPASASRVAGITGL
MEASUREMENT LABEL: IC50 (nM)
Write the answer as a number in nM, unit excluded.

Measured IC50, Cc1c(-c2cc(F)c3c(c2)/C(=C/c2cc4cnccc4[nH]2)C(=O)N3)cnc2c1NCCO2 : 0.1
